ASSAY_TARGET: T1, formyl peptide receptor (UniProt P21462 1-350, limits assumed)
T1 sequence (looked up): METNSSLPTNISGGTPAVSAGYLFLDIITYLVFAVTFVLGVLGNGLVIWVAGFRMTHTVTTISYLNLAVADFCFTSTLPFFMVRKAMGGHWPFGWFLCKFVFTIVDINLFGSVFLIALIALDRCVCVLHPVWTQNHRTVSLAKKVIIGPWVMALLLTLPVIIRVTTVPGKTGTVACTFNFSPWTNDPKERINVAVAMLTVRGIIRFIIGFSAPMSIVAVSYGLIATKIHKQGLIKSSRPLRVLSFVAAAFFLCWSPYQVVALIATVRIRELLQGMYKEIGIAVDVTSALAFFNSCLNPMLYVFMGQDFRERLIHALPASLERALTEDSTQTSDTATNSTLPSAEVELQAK
TEST_DESCRIPTION: cell-based or functional assay
Where no end group is shown, it is not given here. [ ]: non-standard residue; d: D form.
MEASURED_ENDPOINT: EC50 of intracellular calcium increase in FPR-expressing RBL-2H3 cells (fura-2) (nM)
Give bare numbers, in nM.

[[record]]
binder = "WEYMV[dM]-NH2 (N-terminus assumed; SMILES CSCC[C@H](NC(=O)[C@H](Cc1ccc(O)cc1)NC(=O)[C@H](CCC(=O)O)NC(=O)[C@@H](N)Cc1c[nH]c2ccccc12)C(=O)N[C@H](C(=O)N[C@H](CCSC)C(N)=O)C(C)C) [Trp-Glu-Tyr-Met-Val-D-Met-NH2]"
meas_value = 317

[[record]]
binder = "WKEMV[dM]-NH2 (N-terminus assumed; SMILES CSCC[C@H](NC(=O)[C@H](CCC(=O)O)NC(=O)[C@H](CCCCN)NC(=O)[C@@H](N)Cc1c[nH]c2ccccc12)C(=O)N[C@H](C(=O)N[C@H](CCSC)C(N)=O)C(C)C) [Trp-Lys-Glu-Met-Val-D-Met-NH2]"
meas_value = 1330


Dear colleague, could you please provide EC50 of intracellular calcium increase in FPR-expressing RBL-2H3 cells (fura-2) for the binders listed below?
1. WKFMV[dM]-NH2 (N-terminus assumed; SMILES CSCC[C@H](NC(=O)[C@H](Cc1ccccc1)NC(=O)[C@H](CCCCN)NC(=O)[C@@H](N)Cc1c[nH]c2ccccc12)C(=O)N[C@H](C(=O)N[C@H](CCSC)C(N)=O)C(C)C) [Trp-Lys-Phe-Met-Val-D-Met-NH2]
2. WKHMV[dM]-NH2 (N-terminus assumed; SMILES CSCC[C@H](NC(=O)[C@H](Cc1c[nH]cn1)NC(=O)[C@H](CCCCN)NC(=O)[C@@H](N)Cc1c[nH]c2ccccc12)C(=O)N[C@H](C(=O)N[C@H](CCSC)C(N)=O)C(C)C) [Trp-Lys-His-Met-Val-D-Met-NH2]
3. WRYMV[dM]-NH2 (N-terminus assumed; SMILES CSCC[C@H](NC(=O)[C@H](Cc1ccc(O)cc1)NC(=O)[C@H](CCCNC(=N)N)NC(=O)[C@@H](N)Cc1c[nH]c2ccccc12)C(=O)N[C@H](C(=O)N[C@H](CCSC)C(N)=O)C(C)C) [Trp-Arg-Tyr-Met-Val-D-Met-NH2]
4. WKYMY[dM]-NH2 (N-terminus assumed; SMILES CSCC[C@H](NC(=O)[C@H](Cc1ccc(O)cc1)NC(=O)[C@H](CCCCN)NC(=O)[C@@H](N)Cc1c[nH]c2ccccc12)C(=O)N[C@@H](Cc1ccc(O)cc1)C(=O)N[C@H](CCSC)C(N)=O) [Trp-Lys-Tyr-Met-Tyr-D-Met-NH2]

17.7
280
54.9
665
